Recorded IC50 for the following molecules
System: HCC 2998
Experiment: Human tumour cell line panel, colon cancer HCC 2998
Assay type: cell-based
Conditions: 48 h; read-out: Colon cancer cells, IC50(μM) HCC 2998
Endpoint Name: IC50

- CC[N+](C)(CC)CCOc1ccc(C(=O)N2CC(=Cc3ccccc3)C(=O)C(=Cc3ccccc3)C2)cc1.[I-]: 28.2 µM
- O=C1C(=Cc2ccccc2)CNCC1=Cc1ccccc1: 2 µM
- Cl.O=C1C(=Cc2ccc(Cl)cc2)CN(C(=O)c2ccc(OCCN3CCOCC3)cc2)CC1=Cc1ccc(Cl)cc1 [Compound 6b, hydrochloride]: < 0.005 µM
- CC[N+](C)(CC)CCOc1ccc(C(=O)N2CC(=Cc3ccc(C)cc3)C(=O)C(=Cc3ccc(C)cc3)C2)cc1.[I-]: 6.17 µM

---

Test system: HCT 116
Test: Human tumour cell line panel, colon cancer HCT 116
Assay type: cell-based
Conditions: Homo sapiens, HCT-116, 48 h; read-out: Colon cancer cells, IC50(μM) HCT 116
Recorded IC50 for the following molecules
Endpoint Name: IC50 (µM)

• Cl.O=C1C(=Cc2ccc(Cl)cc2)CN(C(=O)c2ccc(OCCN3CCCCC3)cc2)CC1=Cc1ccc(Cl)cc1 [Compound 5b, hydrochloride] = 47.9
• O=c1[nH]cc(F)c(=O)[nH]1 [5-Fluorouracil, 5-fluorouracil, reference compound] = 2.04

---

Tested on: human gingival fibroblasts (HGF)
Experiment: in vitro
Recorded CC50 for the following molecules
Endpoint Name: CC50 (µM)

- CC[N+](C)(CC)CCOc1ccc(C(=O)N2CC(=Cc3ccccc3)C(=O)C(=Cc3ccccc3)C2)cc1.[I-] [Compound 7a]: 160
- CC[N+](C)(CC)CCOc1ccc(C(=O)N2CC(=Cc3ccc([N+](=O)[O-])cc3)C(=O)C(=Cc3ccc([N+](=O)[O-])cc3)C2)cc1.[I-] [Compound 7c]: 93
- Cl.Cl.O.O.O.O=C1C(=Cc2ccc([N+](=O)[O-])cc2)CN(C(=O)c2ccc(OCCN3CCCCC3)cc2)CC1=Cc1ccc([N+](=O)[O-])cc1.O=C1C(=Cc2ccc([N+](=O)[O-])cc2)CN(C(=O)c2ccc(OCCN3CCCCC3)cc2)CC1=Cc1ccc([N+](=O)[O-])cc1 [Compound 5c, hydrate]: 8

---

Tested on: human promyelocytic leukemia HL-60
Experiment: Cytotoxicity CC50, trypan blue exclusion, HL-60
Rule: CC50 below 2 µM gives T, anything at or above gives F.

- Cc1ccc(C=C2CN(C(=O)c3ccc(OCCN4CCCCC4)cc3)CC(=Cc3ccc(C)cc3)C2=O)cc1.Cc1ccc(C=C2CN(C(=O)c3ccc(OCCN4CCCCC4)cc3)CC(=Cc3ccc(C)cc3)C2=O)cc1.Cl.Cl.O [Compound 5d, hydrochloride hemihydrate]: F
- Cl.O=C1C(=Cc2ccc(Cl)cc2)CN(C(=O)c2ccc(OCCN3CCOCC3)cc2)CC1=Cc1ccc(Cl)cc1 [Compound 6b, hydrochloride]: F
- Cl.Cl.O.O.O.O=C1C(=Cc2ccc([N+](=O)[O-])cc2)CN(C(=O)c2ccc(OCCN3CCCCC3)cc2)CC1=Cc1ccc([N+](=O)[O-])cc1.O=C1C(=Cc2ccc([N+](=O)[O-])cc2)CN(C(=O)c2ccc(OCCN3CCCCC3)cc2)CC1=Cc1ccc([N+](=O)[O-])cc1 [Compound 5c, hydrate]: T
- CC[N+](C)(CC)CCOc1ccc(C(=O)N2CC(=Cc3ccccc3)C(=O)C(=Cc3ccccc3)C2)cc1.[I-]: F
- CC[N+](C)(CC)CCOc1ccc(C(=O)N2CC(=Cc3ccc(C)cc3)C(=O)C(=Cc3ccc(C)cc3)C2)cc1.[I-]: F
